Data credit: ChEMBL document CHEMBL5518215

This section presents substances with their documented MIC values.
Tested on: Bacillus cereus
experimentSummary: Antimicrobial activity against Bacillus cereus 1.932 assessed as absence bacterial growth measured after 18 to 24 hrs incubation by NCCLS method
Type: functional
experimentalConditions: time 18-24 hrs
Just the number please, in µM, no unit attached.

Illustrative cases are given below, each with its answer.
Query: Name the reported MIC value associated with the substance H-GKLWLKGIKLWLKGGKLWLKG-NH2
Response: 2

Query: Next entry: H-GKLWLKGAKLWLKGGKLWLKG-NH2
Response: 2

Query: Query H-GKLWLKAGKLWLKGGKLWLKG-NH2 next
Response: 2

Query: Likewise for H-GKLWLKGFKLWLKGGKLWLKG-NH2 ?
Response: 2

Query: Follow-up entry: H-GKLWLKGVKLWLKGGKLWLKG-NH2
Response: 4

Query: Another substance: H-AKLWLKAAKLWLKAAKLWLKA-NH2
Response: 2

Next:
Query: So what's the measured MIC for this one? H-GKLWLKGWKLWLKGGKLWLKG-NH2
Response: 1

Query: Entry H-GKLWLKGGKLWLKAGKLWLKG-NH2 please
Response: 4

* * *

Test system: Acinetobacter baumannii
experimentSummary: Antimicrobial activity against Acinetobacter baumannii 1.6769 assessed as bacterial killing measured after 16 hrs incubation
Format: functional
# MBC listing for each entry below
Note to self: number, then unit, no commentary.

// known answers, use as guide
Query: Given the entry H-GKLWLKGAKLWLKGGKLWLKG-NH2 , report its measured MBC.
Response: 4 µM

Query: Record: H-GKLWLKGCKLWLKGGKLWLKG-NH2
Response: 16 µM

Continue with the next substance.
Query: Fill in: MBC of H-GKLWLKGGKLWLKGGKLWLKG-NH2 is ___
Response: 8 µM

* * *

Reported values of MBC for individual entries
experimentSummary: Antimicrobial activity against Salmonella pullorum C7913 assessed as bacterial killing measured after 16 hrs incubation
Assay type: functional, Salmonella enterica subsp. enterica serovar Pullorum
experimentalConditions: Salmonella enterica
Answer format: numeric, µM implied, no suffix.

Sample records with MBC:
Query: Item H-MKLWLKGGKLWLKGGKLWLKG-NH2 has what recorded MBC?
Response: 2

Query: Same thing, different substance: H-FKLWLKGGKLWLKGGKLWLKG-NH2
Response: 2

Query: Cool, now H-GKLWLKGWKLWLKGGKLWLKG-NH2
Response: 1

Query: Request: H-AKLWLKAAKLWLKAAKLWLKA-NH2
Response: 8

Query: Same read-out for H-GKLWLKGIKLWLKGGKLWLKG-NH2 ?
Response: 1

More entries:
Query: Name the reported MBC value associated with the substance H-GKLWLKGCKLWLKGGKLWLKG-NH2
Response: 4

Query: Next up: H-AKLWLKGGKLWLKGGKLWLKG-NH2
Response: 2

* * *

System: Pseudomonas aeruginosa
experimentSummary: Antimicrobial activity against Pseudomonas aeruginosa 27853 assessed as absence bacterial growth measured after 18 to 24 hrs incubation by NCCLS method
Type: functional
experimentalConditions: time 18-24 hrs
attributeMeasured: MIC

Some substances with recorded MIC:
Query: # lookup: MIC of H-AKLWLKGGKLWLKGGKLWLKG-NH2
Response: > 32 µM

Query: Same lookup for H-VKLWLKGGKLWLKGGKLWLKG-NH2 , please.
Response: > 32 µM

Next:
Query: Request the reported MIC associated with H-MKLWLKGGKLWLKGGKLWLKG-NH2
Response: > 32 µM
